Target: human DGAT2 (hDGAT2) (Homo sapiens, UniProt Q96PD7)
Sequence (Q96PD7 1-388): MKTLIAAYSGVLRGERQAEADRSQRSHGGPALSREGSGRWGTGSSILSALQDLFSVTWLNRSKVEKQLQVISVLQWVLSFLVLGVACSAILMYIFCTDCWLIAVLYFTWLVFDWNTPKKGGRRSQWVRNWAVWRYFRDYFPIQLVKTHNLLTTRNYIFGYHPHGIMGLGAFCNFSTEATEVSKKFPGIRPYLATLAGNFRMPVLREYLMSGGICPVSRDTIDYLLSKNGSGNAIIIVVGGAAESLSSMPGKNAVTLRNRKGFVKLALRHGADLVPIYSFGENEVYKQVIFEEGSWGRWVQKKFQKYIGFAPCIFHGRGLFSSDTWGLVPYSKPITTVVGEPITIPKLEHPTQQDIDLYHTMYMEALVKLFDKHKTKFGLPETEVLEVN
quantity-measured: IC50 (nM)

INSERT INTO results (molecule, reading_qualifier, recorded_number) VALUES
  ('Cc1c(C(=O)NC2(C)CCS(=O)(=O)CC2)nc2ccc(Oc3ncc(C(F)(F)F)cc3OCC(F)(F)F)cn12', '=', 17),
  ('Cc1c(C(=O)NC2(C)CCS(=O)(=O)CC2)nc2ccc(Oc3ncc(Cl)cc3OCC(F)F)nn12', '=', 6.8),
  ('CC1(NC(=O)c2nc3ccc(Oc4ncccc4OCC(F)(F)F)cn3c2C(N)=O)CCS(=O)(=O)CC1', '=', 28),
  ('CC1(NC(=O)c2cn3cc(Oc4ncc(Cl)cc4OCC(F)(F)F)c(Cl)cc3n2)CCS(=O)(=O)CC1', '=', 4.3),
  ('CCc1cc2nc(C(=O)NC3(C)CCS(=O)(=O)CC3)cn2cc1Oc1ncc(Cl)cc1OCC(F)(F)F', '=', 9),
  ('CC1(NC(=O)c2cn3cc(Oc4ncccc4OCC(F)(F)F)ccc3n2)CCS(=O)(=O)CC1', '=', 5.3),
  ('CS(=O)(=O)CC1(NC(=O)c2cn3nc(Oc4ncc(Cl)cc4OCC(F)F)ccc3n2)CCC1', '=', 207),
  ('CC1(NC(=O)c2cn3cc(Oc4ncc(F)cc4OCC(F)(F)F)c(F)cc3n2)CCS(=O)(=O)CC1', '=', 1.8),
  ('CC1(NC(=O)c2cn3nc(Oc4ncc(F)cc4OCC4CC4)ccc3n2)CCS(=O)(=O)CC1', '=', 18),
  ('CCOc1cccnc1Oc1ccc2nc(C(=O)NC3(C)CCC(F)(F)CC3)cn2c1', '=', 5.8),
  ('CC1(NC(=O)c2nc3ccc(Oc4ncc(Cl)cc4OCC(F)F)nn3c2Cl)CS(=O)(=O)C1', '=', 24),
  ('O=C(N[C@H]1CCCC(F)(F)[C@@H]1O)c1cn2nc(Oc3ncc(Cl)cc3OCC(F)(F)F)ccc2n1', '=', 37),
  ('Cc1c(C(=O)NC2(C)CS(=O)(=O)C2)nc2cc(F)c(Oc3ncc(F)cc3OCC(F)(F)F)cn12', '=', 41),
  ('CCOCC(C)(C)COc1ccc2nc(C(=O)NC3(C)CCS(=O)(=O)CC3)c(C)n2c1', '=', 161),
  ('Cc1c(C(=O)NC2(C)CCS(=O)(=O)CC2)nc2ccc(Oc3ncc(F)cc3OCC(F)(F)F)cn12', '=', 8.3),
  ('Cc1c(C(=O)N[C@H]2CCC(=O)NC2)nc2ccc(Oc3ncccc3OCC(F)(F)F)cn12', '>', 9990),
  ('CCOc1cccnc1Oc1ccc2nc(C(=O)NCc3ccccc3)cn2c1', '=', 346),
  ('Cc1c(C(=O)NC2(C)CCS(=O)(=O)CC2)nc2ccc(Oc3ncc(C(C)(C)F)cc3OCC(F)(F)F)cn12', '=', 41),
  ('CC1(NC(=O)c2nc3cc(Cl)c(Oc4nccnc4OCC(F)(F)F)nn3c2Cl)CCS(=O)(=O)CC1', '=', 391),
  ('CCOc1cccnc1Oc1ccc2nc(C(=O)Nc3ccc(C)nn3)cn2c1', '=', 1110),
  ('Cc1cc2nc(C(=O)NC3(C)CCS(=O)(=O)CC3)cn2cc1Oc1ncc(Cl)cc1OCC(F)(F)F', '=', 6.2),
  ('Cc1c(C(=O)NC2CC(C(F)(F)F)C2)nc2ccc(Oc3ncc(F)cc3OCC(F)F)cn12 (stereo not shown)', '=', 4),
  ('Cc1c(C(=O)NC2(C)CCS(=O)(=O)CC2)nc2ccc(Oc3ncc(C(=O)O)cc3OCC(F)(F)F)cn12', '>', 9990),
  ('Cc1cc(Oc2ncccc2OCC(F)(F)F)cn2cc(C(=O)NC3(C)CCS(=O)(=O)CC3)nc12', '=', 117),
  ('CC1(NC(=O)c2cn3nc(Oc4ncc(Cl)cc4OCC(F)F)ccc3n2)CCS(=O)(=O)CC1', '=', 3.2),
  ('CC1(NC(=O)c2cn3cc(Oc4ncc(Cl)cc4OCC(F)(F)F)cnc3n2)CCS(=O)(=O)CC1', '=', 33),
  ('Cc1c(Oc2ncccc2OCC(F)(F)F)ccc2nc(C(=O)NC3(C)CCS(=O)(=O)CC3)cn12', '=', 30),
  ('Cc1cc2nc(C(=O)NC3(C)CCS(=O)(=O)CC3)cn2nc1Oc1ncc(Cl)cc1OCC(F)F', '=', 1),
  ('Cc1c(C(=O)NC2(C)CCS(=O)(=O)CC2)nc2ccc(Oc3ncc(Cl)cc3OCC3(F)CC3)cn12', '=', 3.5),
  ('Cc1cn(C)nc1COc1ccc2nc(C(=O)NC3(C)CCS(=O)(=O)CC3)cn2n1', '=', 808),
  ('Cc1c(Oc2ncc(F)cc2OCC(F)(F)F)ccc2nc(C(=O)NC3(C)CCS(=O)(=O)CC3)cn12', '=', 2.8);

---

Measurement record for human DGAT2 (hDGAT2) (Homo sapiens); quantity recorded: IC50.
quantity-measured: IC50 (nM)

INSERT INTO assay_data (compound, u, recorded_number) VALUES
  ('Cc1c(C(=O)NC2(C)CCS(=O)(=O)CC2)nc2ccc(Oc3ncc(C#N)cc3OCC(F)(F)F)cn12', 'nM', 33),
  ('CC1(NC(=O)c2cn3nc(OCc4ncc(F)cc4OCC(F)(F)F)ccc3n2)CCS(=O)(=O)CC1', 'nM', 11),
  ('CC1(NC(=O)c2nc3cc(Cl)c(Oc4ncc(Cl)cc4OCC(F)(F)F)nn3c2Cl)CS(=O)(=O)C1', 'nM', 101),
  ('O=C(NC1CCOc2c(F)cc(F)cc21)c1cn2cc(Oc3ncccc3OCC(F)(F)F)ccc2n1 (stereo not shown)', 'nM', 123),
  ('Cc1c(C(=O)NC2(C)CN(C(=O)C(F)(F)F)C2)nc2ccc(Oc3ncc(F)cc3OCC(F)F)cn12', 'nM', 1.6),
  ('Cc1c(C(=O)NC2(C)CS(=O)(=O)C2)nc2ccc(Oc3ncccc3OCC(F)F)cn12', 'nM', 5),
  ('Cc1c(C(=O)NC2(C)CCS(=O)(=O)CC2)nc2ccc(Oc3ncccc3OCC(F)(F)F)cn12', 'nM', 17);

---

target: human DGAT2 (hDGAT2) (Homo sapiens, UniProt Q96PD7)
pIC50: −log10 of the molar value.
quantity-measured: pIC50

INSERT INTO results (compound, recorded_number) VALUES
  ('Cc1c(Oc2ncc(F)cc2OCC2(F)CC2)ccc2nc(C(=O)NC3(C)CCS(=O)(=O)CC3)cn12 [Example 33]', 8.28),
  ('CC1(NC(=O)c2cn3nc(Oc4ncc(Cl)cc4OCC(F)(F)F)ccc3n2)CCS(=O)(=O)CC1 [Example 159]', 6.68),
  ('Cc1c(C(=O)NC2(C(C)C)CCS(=O)(=O)CC2)nc2ccc(Oc3ncc(F)cc3OCC(F)(F)F)cn12 [Example 91]', 7.66),
  ('CC1(NC(=O)c2nc3ccc(Oc4ncc(F)cc4OCC(F)(F)F)c(Cl)n3c2Cl)CS(=O)(=O)C1 [Example 140]', 8.68);

---

Protein target, amino acids: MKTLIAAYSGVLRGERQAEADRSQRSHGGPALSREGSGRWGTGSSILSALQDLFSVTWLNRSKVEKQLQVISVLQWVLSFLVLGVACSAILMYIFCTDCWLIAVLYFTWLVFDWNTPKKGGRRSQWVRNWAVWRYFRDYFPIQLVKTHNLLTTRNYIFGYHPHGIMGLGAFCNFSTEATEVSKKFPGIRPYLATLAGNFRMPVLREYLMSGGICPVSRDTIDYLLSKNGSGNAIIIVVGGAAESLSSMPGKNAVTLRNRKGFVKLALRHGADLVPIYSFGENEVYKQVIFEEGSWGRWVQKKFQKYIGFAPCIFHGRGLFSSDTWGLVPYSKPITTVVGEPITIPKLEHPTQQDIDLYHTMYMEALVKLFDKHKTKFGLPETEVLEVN
pIC50: −log10 of the molar value.
Kindly return yes (1) if reported pIC50 is no lower than 8; return no (0) if it is lower.

INSERT INTO results (smiles_notation, class) VALUES
  ('CCOc1ccccc1COc1ccc2nc(C(=O)NC3(C)CCS(=O)(=O)CC3)c(C)n2c1', 'yes (1)'),
  ('Cc1c(C(=O)NC2(C)CS(=O)(=O)C2)nc2cc(F)c(Oc3ncc(Cl)cc3OCC(F)(F)F)cn12', 'yes (1)'),
  ('CCOc1cc(Cl)cnc1Oc1ccc2nc(C(=O)NC3(C)CS(=O)(=O)C3)c(C)n2c1', 'yes (1)'),
  ('Cc1c(C(=O)NC2(C)CCS(=O)(=O)CC2)nc2ccc(Oc3ncc(F)cc3OCC3(F)CC3)cn12', 'yes (1)'),
  ('CCOc1cccnc1Oc1ccc2nc(C(=O)NC3(C)CS(=O)(=O)C3)c(CC)n2c1', 'no (0)'),
  ('CC(C)c1c(C(=O)NC2(C)CCS(=O)(=O)CC2)nc2ccc(Oc3ncccc3OCC(F)(F)F)cn12', 'no (0)'),
  ('CC1(CNC(=O)c2cn3cc(Oc4ncc(Cl)cc4OCC(F)(F)F)ccc3n2)CS(=O)(=O)C1', 'no (0)'),
  ('CC(F)(F)COc1cc(F)cnc1Oc1ccc2nc(C(=O)NC3(C)CCS(=O)(=O)CC3)cn2n1', 'no (0)');
